Recorded EC50 GCase for the following binders
# SYSTEM UNDER TEST: T1, full-length untagged human GPNMB expressed on cells (human, UniProt Q14956 23-572)
# T1 sequence: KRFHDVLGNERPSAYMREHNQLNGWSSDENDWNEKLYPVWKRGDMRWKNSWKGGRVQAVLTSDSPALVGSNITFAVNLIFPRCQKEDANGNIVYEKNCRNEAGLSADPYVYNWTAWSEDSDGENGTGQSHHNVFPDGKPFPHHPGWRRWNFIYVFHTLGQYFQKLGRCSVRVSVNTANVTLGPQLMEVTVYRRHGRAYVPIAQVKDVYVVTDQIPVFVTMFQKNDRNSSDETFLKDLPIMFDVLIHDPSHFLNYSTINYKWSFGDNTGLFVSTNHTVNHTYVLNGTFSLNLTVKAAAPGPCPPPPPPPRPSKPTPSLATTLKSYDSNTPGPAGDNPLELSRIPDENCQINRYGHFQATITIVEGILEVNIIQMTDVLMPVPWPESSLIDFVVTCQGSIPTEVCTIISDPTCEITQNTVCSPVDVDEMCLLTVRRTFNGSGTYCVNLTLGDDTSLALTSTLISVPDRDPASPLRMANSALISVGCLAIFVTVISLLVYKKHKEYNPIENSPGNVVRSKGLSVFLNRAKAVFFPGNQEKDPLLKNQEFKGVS
# PROCEDURE SUMMARY: cell-based or functional assay
Kindly provide the numeric value in nM only, without the unit symbol.

Examples from the recorded data:
Query EC50 GCase for anti-GPNMB antibody GPN-90 (antibody, V domains shown) VH: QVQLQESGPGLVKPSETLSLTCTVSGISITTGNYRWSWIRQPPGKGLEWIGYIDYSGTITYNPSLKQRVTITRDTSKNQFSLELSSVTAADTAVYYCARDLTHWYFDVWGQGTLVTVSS VL: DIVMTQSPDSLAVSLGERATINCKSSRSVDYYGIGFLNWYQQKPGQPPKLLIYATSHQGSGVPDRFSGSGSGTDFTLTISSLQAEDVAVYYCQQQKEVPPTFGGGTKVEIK
0.685

Name the recorded EC50 GCase of the item anti-GPNMB antibody GPN-95 (antibody, V domains shown, also called PGN-95) VH: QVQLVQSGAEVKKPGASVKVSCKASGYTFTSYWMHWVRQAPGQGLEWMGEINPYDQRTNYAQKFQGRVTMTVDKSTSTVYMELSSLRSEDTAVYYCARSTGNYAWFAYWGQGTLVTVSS VL: DIVMTQSPDSLAVSLGERATINCKTSQDVSPSLAWYQQKPGQPPKLLIYSARYRYTGVPDRFSGSGSGTDFTLTISSLQAEDVAVYYCQQHYSIPLQFGGGTKVEIK in your answer.
0.23

Note down EC50 GCase recorded for anti-GPNMB antibody GPN-98 (antibody, V domains shown) VH: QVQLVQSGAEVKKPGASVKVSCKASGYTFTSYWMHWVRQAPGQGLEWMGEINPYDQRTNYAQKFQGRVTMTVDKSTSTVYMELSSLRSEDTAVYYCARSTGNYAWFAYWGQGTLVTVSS VL: DIVMTQSPDSLAVSLGERATINCKASQDVSPSLAWYQQKPGQPPKLLIYSASYRYTGVPDRFSGSGSGTDFTLTISSLQAEDVAVYYCQQHYSIPLTFGGGTKVEIK
0.25

Fill in reported EC50 GCase for this entry: anti-GPNMB antibody GPN-87 (antibody, V domains shown) VH: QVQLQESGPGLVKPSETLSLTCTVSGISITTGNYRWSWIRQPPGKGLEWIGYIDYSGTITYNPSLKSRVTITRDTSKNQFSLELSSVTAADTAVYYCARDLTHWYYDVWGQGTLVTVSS VL: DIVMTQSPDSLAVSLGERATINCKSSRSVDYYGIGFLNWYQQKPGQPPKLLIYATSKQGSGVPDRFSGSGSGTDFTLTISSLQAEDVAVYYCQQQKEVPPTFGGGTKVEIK
0.767

Look up EC50 GCase of anti-GPNMB antibody GPN-94 (antibody, V domains shown) VH: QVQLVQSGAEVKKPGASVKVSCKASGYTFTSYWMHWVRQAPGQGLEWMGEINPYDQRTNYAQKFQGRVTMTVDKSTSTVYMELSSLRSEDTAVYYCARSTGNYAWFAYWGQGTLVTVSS VL: DIVMTQSPDSLAVSLGERATINCKTSQDVSPSLAWYQQKPGQPPKLLIYSASKRYTGVPDRFSGSGSGTDFTLTISSLQAEDVAVYYCQQHYSIPLTFGGGTKVEIK and report it.
0.54

Tell me its EC50 GCase given anti-GPNMB antibody GPN-97 (antibody, V domains shown) VH: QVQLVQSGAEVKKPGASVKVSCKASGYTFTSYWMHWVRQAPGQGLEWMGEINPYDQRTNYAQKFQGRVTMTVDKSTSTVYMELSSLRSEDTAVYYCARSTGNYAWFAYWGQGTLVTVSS VL: DIVMTQSPDSLAVSLGERATINCKTSQDVSPSLAWYQQKPGQPPKLLIYSGSYRYTGVPDRFSGSGSGTDFTLTISSLQAEDVAVYYCQQHYSIPLTFGGGTKVEIK as the entry.
0.22

For anti-GPNMB antibody GPN-89 (antibody, V domains shown) VH: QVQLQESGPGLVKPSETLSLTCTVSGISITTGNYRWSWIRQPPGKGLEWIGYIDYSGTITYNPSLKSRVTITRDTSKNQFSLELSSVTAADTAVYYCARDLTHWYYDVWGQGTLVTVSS VL: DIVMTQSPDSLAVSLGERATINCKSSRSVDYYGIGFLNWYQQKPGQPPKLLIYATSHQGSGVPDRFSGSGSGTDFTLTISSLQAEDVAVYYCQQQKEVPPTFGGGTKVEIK , write its EC50 GCase.
0.898

Quote EC50 GCase reported for anti-GPNMB antibody GPN-85 (antibody, V domains shown) VH: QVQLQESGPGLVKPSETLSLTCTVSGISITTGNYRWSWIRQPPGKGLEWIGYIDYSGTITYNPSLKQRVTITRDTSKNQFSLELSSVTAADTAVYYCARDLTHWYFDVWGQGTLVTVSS VL: DIVMTQSPDSLAVSLGERATINCKSSRSVDYFGIGFLNWYQQKPGQPPKLLIYATSHQGSGVPDRFSGSGSGTDFTLTISSLQAEDVAVYYCQQQKEVPPTFGGGTKVEIK please.
2.2

New cases:
Give me measured EC50 GCase, please, for this binder: anti-GPNMB antibody GPN-93 (antibody, V domains shown) VH: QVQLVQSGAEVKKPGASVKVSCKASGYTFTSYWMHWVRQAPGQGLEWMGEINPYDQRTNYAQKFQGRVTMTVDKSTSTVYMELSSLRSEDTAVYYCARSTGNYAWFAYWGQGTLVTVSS VL: DIVMTQSPDSLAVSLGERATINCKTSQDVSPSLAWYQQKPGQPPKLLIYSASKRYTGVPDRFSGSGSGTDFTLTISSLQAEDVAVYYCQQHYSIPLQFGGGTKVEIK
0.5

// Input: anti-GPNMB antibody GPN-96 (antibody, V domains shown) VH: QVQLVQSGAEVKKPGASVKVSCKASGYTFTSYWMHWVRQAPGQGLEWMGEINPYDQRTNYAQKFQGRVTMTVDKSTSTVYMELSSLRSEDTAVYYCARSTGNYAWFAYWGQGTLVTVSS VL: DIVMTQSPDSLAVSLGERATINCKASQDVSPSLAWYQQKPGQPPKLLIYRASYRYTGVPDRFSGSGSGTDFTLTISSLQAEDVAVYYCQQHYSIPLTFGGGTKVEIK . Output its EC50 GCase only.
0.23
